MEASUREMENT_KIND: melting point

// worked examples, melting point included
COMPOUND: O=C(Nc1ccc(S(=O)(=O)C(F)(F)F)cc1Cl)c1cc(S(=O)c2ccc(F)cc2)c2ccccc2c1O (stereo not given)
MEASUREMENT_KIND: melting point
VAL: 198 to 200 °C
//
COMPOUND: COc1ccc(CCNc2nc(N)c(N)c(N)n2)cc1
MEASUREMENT_KIND: melting point
VAL: 134 to 138 °C
//
COMPOUND: Fc1ccccc1C(c1ccccc1)n1cccc1 (stereo not given)
MEASUREMENT_KIND: melting point
VAL: 81 to 82.5 °C
//
COMPOUND: NS(=O)(=O)c1ccccc1C=CC(F)(F)F
MEASUREMENT_KIND: melting point
VAL: 153 to 154 °C
//
COMPOUND: Clc1nccnc1Oc1ccc(Oc2ccccc2)cc1
MEASUREMENT_KIND: melting point
VAL: 53 to 55 °C

Per the record, CON=C1CN(c2nc3c(cc2F)c(=O)c(C(=O)O)cn3-c2ccc(F)cc2F)CC12CN(C(=O)OC(C)(C)C)C2 has melting point of 230 to 232 °C

Value of melting point reported for the compound Cc1cccc(Oc2ccc(Cl)cc2C(=O)O)c1 is 124 to 125 °C

Recorded result, Cn1ccc2cc(N3Cc4ccc(Br)cc4C3=O)ccc21 , melting point: 235 to 237 °C

COc1ccc(NC(=O)C2CC2)cn1 yielded melting point of 130 to 131 °C

Looking up O=C1C=CC(=O)N1CCN1C(=O)C=CC1=O , I see its melting point listed as 193 to 194 °C
